Target: MAP4K5 (human) (UniProt Q9Y4K4)
Sequence (Q9Y4K4 whole entry, looked up): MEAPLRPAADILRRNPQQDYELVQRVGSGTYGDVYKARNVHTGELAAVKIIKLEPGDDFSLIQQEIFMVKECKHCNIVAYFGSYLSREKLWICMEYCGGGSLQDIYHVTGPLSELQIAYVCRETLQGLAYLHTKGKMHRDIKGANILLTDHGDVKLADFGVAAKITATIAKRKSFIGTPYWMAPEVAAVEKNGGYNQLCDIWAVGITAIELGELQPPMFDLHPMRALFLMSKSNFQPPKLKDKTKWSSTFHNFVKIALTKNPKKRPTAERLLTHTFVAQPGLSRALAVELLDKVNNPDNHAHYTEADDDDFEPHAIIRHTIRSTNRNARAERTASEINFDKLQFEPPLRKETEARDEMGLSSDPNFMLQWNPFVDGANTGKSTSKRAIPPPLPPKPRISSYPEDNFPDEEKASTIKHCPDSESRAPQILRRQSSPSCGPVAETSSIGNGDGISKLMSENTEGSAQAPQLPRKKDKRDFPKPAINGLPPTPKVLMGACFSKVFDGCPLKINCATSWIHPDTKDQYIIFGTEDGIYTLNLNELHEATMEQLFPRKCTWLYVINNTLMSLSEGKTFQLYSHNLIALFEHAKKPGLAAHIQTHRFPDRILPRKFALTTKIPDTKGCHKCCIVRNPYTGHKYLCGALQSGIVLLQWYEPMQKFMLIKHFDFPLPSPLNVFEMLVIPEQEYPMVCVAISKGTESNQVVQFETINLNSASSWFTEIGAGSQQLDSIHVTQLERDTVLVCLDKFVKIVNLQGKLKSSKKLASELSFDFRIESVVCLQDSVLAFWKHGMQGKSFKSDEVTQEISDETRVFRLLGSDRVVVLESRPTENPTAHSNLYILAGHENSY
Experiment: KINOMEscan competition binding
Conditions: compound 10.0 µM
Below, each of the compounds is paired with its reported kinase still bound, per cent of control value.

compound: Cc1cc([C@@H](C)Nc2ccccc2C(=O)O)c2nc(N3CCOCC3)cc(=O)n2c1
kinase still bound, per cent of control: 96%

compound: CN(C)C/C=C/C(=O)Nc1cccc(Nc2ncc3c(n2)N(C)c2ccccc2C(=O)N3C)c1
kinase still bound, per cent of control: 75%

compound: COc1cc(C(=O)NC2CCN(C)CC2)ccc1Nc1ncc2c(n1)N(C1CCCC1)C(C)CC(=O)N2C (stereo not given)
kinase still bound, per cent of control: 100%

compound: CCC(=O)N1CCN(c2ccc(-n3c(=O)ccc4cnc5ccc(-c6cnc7ccccc7c6)cc5c43)cc2C(F)(F)F)CC1
kinase still bound, per cent of control: 8.1%

compound: C=CC(=O)Nc1cccc(Oc2nc(Nc3ccc(N4CCN(C)CC4)cc3OC)ncc2Cl)c1
kinase still bound, per cent of control: 100%

meta.source: the kinase profiling compilation of Christmann-Franck et al. (2016)
